// provenance: patent US20220177594A1

# TEST_SYSTEM: Feline_OSMR_hlgG1_Fc (feline)
# Sequence (chain, as listed by the source limits assumed, form in doubt): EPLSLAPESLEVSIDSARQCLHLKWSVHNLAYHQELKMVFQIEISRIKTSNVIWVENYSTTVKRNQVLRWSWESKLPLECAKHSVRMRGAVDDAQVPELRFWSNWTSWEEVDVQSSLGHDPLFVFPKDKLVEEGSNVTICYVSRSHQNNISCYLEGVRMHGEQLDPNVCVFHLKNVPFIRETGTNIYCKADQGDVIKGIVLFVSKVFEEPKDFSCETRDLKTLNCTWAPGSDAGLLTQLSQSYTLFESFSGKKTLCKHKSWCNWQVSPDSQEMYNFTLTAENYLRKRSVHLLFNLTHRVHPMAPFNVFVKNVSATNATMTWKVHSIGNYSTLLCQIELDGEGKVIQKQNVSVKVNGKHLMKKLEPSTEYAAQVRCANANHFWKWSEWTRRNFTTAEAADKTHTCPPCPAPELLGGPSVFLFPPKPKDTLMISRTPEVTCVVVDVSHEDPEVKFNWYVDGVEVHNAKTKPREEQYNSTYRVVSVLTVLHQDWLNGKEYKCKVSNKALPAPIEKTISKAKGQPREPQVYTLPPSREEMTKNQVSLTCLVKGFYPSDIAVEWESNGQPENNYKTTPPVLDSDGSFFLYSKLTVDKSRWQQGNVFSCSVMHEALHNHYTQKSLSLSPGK
# METHOD_DESCRIPTION: SPR Biacore

BINDER	kon / M⁻¹ s⁻¹
Mu_02D09_VH (SEQ ID NO: 31)_R104A (antibody, V domains shown) VH: EVQLVESGGGLVKPGGSLTLSCAASGFTFSDYGMHWLRQAPEKGLEWVAYISSGSRAVFFADTVKGRFTISRDNAKNTLFLQMTSLRSDDTAMYYCARDRYDGAGFAYWGQGTLVTVSA VL: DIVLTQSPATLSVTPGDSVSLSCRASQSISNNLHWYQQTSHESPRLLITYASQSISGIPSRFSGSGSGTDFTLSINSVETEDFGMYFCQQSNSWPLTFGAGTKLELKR	129000
Mu_09E09_VL (SEQ ID NO: 37)_G91A (antibody, V domains shown) VH: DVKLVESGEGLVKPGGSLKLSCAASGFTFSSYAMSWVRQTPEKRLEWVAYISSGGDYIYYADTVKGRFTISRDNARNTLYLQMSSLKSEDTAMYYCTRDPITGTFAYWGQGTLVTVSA VL: DLQMTQTTSSLSASLGDRVTISCRASQDINNYLNWYQQKPDGTVKLLIYYTSTLHSGVPSRFSGSGSGTDYSLTISNLEQEDIATYFCQQANTLPWTFGGGTKLEIKR	918000
Mu_19F07_VH (SEQ ID NO: 47)_Y59A (antibody, V domains shown) VH: EVKLVESEGGLVQPGSSMKLSCTASGFTFSDYYMAWVRQVPEKGLEWVANINYDGSSTAYLDSLKSRFIISRDNAKNILYLQMSSLKSEDTATYYCARGLTWDFDVWGTGTTVTVSS VL: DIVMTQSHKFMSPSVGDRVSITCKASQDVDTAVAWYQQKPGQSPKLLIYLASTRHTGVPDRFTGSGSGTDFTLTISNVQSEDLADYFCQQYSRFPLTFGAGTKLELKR	351000
